Source of measurements: patent US20260193293A1

subject.of.test: Sushi domains (SD1/2) protein of GABAB1a (GB1a)
Sequence (Q9Z0U4 29-158): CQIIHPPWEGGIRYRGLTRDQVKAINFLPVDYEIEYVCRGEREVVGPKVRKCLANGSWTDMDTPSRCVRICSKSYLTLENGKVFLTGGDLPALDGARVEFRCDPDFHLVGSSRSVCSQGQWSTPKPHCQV
assay.name: FP competition vs TAMRA AJAP-1probe
Starred links: 1 amine or outer side, 2 acyl side, 3 side chain; linkers in the order of their positions; H or OH if unused. Non-standard residues stand in square brackets, D forms with d. Obtyr = O-benzyl-L-tyrosine, O=C([C@H](Cc1ccc(OCc2ccccc2)cc1)N[*:1])[*:2]; 1Nal = N[C@@H](Cc1cccc2ccccc12)C(=O)O
I'd appreciate it if you marked entries Condition met when Ki is lower than 30 nM and Condition not met when it is not.

Q. Hi there! Is Ki for Ac-EDDSDVWW[1Nal]GADTD-NH2 (SMILES CC(=O)N[C@@H](CCC(=O)O)C(=O)N[C@@H](CC(=O)O)C(=O)N[C@@H](CC(=O)O)C(=O)N[C@@H](CO)C(=O)N[C@@H](CC(=O)O)C(=O)N[C@H](C(=O)N[C@@H](Cc1c[nH]c2ccccc12)C(=O)N[C@@H](Cc1c[nH]c2ccccc12)C(=O)N[C@@H](Cc1cccc2ccccc12)C(=O)NCC(=O)N[C@@H](C)C(=O)N[C@@H](CC(=O)O)C(=O)N[C@H](C(=O)N[C@@H](CC(=O)O)C(N)=O)[C@@H](C)O)C(C)C) [EDDSDVWW(1Nala)GADTD] below 30 nM, do you know?
A. Condition not met

Q. Hi there! Is Ki for Ac-EDDD[Obtyr]IDWYDSDDD-NH2 (SMILES CC[C@H](C)[C@H](NC(=O)[C@H](Cc1ccc(OCc2ccccc2)cc1)NC(=O)[C@H](CC(=O)O)NC(=O)[C@H](CC(=O)O)NC(=O)[C@H](CC(=O)O)NC(=O)[C@H](CCC(=O)O)NC(C)=O)C(=O)N[C@@H](CC(=O)O)C(=O)N[C@@H](Cc1c[nH]c2ccccc12)C(=O)N[C@@H](Cc1ccc(O)cc1)C(=O)N[C@@H](CC(=O)O)C(=O)N[C@@H](CO)C(=O)N[C@@H](CC(=O)O)C(=O)N[C@@H](CC(=O)O)C(=O)N[C@@H](CC(=O)O)C(N)=O) [peptide 33] below 30 nM, do you know?
A. Condition met

Q. Hi there! Is Ki for Ac-EDDSDVWWGPTGDED-NH2 [hybrid peptide X] below 30 nM, do you know?
A. Condition not met

Q. Hi there! Is Ki for Ac-EDDSWIWWGPTGDED-NH2 [peptide 27] below 30 nM, do you know?
A. Condition met

Q. Hi there! Is Ki for Ac-EDDS[1Nal]VWWGGADTD-NH2 (SMILES CC(=O)N[C@@H](CCC(=O)O)C(=O)N[C@@H](CC(=O)O)C(=O)N[C@@H](CC(=O)O)C(=O)N[C@@H](CO)C(=O)N[C@@H](Cc1cccc2ccccc12)C(=O)N[C@H](C(=O)N[C@@H](Cc1c[nH]c2ccccc12)C(=O)N[C@@H](Cc1c[nH]c2ccccc12)C(=O)NCC(=O)NCC(=O)N[C@@H](C)C(=O)N[C@@H](CC(=O)O)C(=O)N[C@H](C(=O)N[C@@H](CC(=O)O)C(N)=O)[C@@H](C)O)C(C)C) [EDDS(1Nala)…] below 30 nM, do you know?
A. Condition not met

Q. Hi there! Is Ki for `Ac-PWAIDWGPTVSRED-NH2` below 30 nM, do you know?
A. Condition not met
